target: Bromodomain-containing protein 4 (Homo sapiens) (UniProt O60885); conditions: Compound concentration 20.0 uM, Protein concentration 2.0 uM, Result type QC Liability

smiles_string	study_system	ΔTm (°C)
O=C(NCCN1CCC2(CC1)C(=O)NCN2c1cccc(F)c1)c1ccc2ccccc2c1	Bromodomain-containing protein 4 (Homo sapiens) (UniProt O60885)	-0.54
CNC(=O)c1cc(C(=O)NC2CC2)cn(Cc2ccccc2)c1=O	Bromodomain-containing protein 4 (Homo sapiens) (UniProt O60885)	-1.08
CC[C@H]1[C@@H](O)[C@@H]2[C@H](CC[C@]3(C)[C@@H]([C@H](C)CCC(=O)O)CC[C@@H]23)[C@@]2(C)CC[C@@H](O)C[C@@H]12	Bromodomain-containing protein 4 (Homo sapiens) (UniProt O60885)	-3.05
CCN(CC)CCO[C@H]1CC[C@@]2(C)C(=CC[C@@H]3[C@@H]2CC[C@]2(C)C(=O)CC[C@@H]32)C1	Bromodomain-containing protein 4 (Homo sapiens) (UniProt O60885)	-1.53

====

target: Bromodomain-containing protein 4 (Homo sapiens) (UniProt O60885); details: Compound concentration 20.0 uM, Protein concentration 2.0 uM, Result type QC Liability
Classification scheme (ΔTm): low: < -1 °C; moderate: ≥ -1 °C and < 0.7 °C; high: ≥ 0.7 °C

molecule	study_system	class_name
CS(=O)(=O)c1ccc(-c2cnc(N)c(C(=O)Nc3ccccc3)n2)cc1	Bromodomain-containing protein 4 (Homo sapiens) (UniProt O60885)	high
COc1ccc(-n2nc(C(F)(F)F)cc2-c2ccc(Cl)cc2)cc1	Bromodomain-containing protein 4 (Homo sapiens) (UniProt O60885)	low
C=CC(=O)Nc1cc(-c2nn(C3CCC(N4CCN(C(C)=O)CC4)CC3)c3ncnc(N)c23)ccc1Oc1ccccc1 (centres undefined)	Bromodomain-containing protein 4 (Homo sapiens) (UniProt O60885)	moderate
COc1ccc(OC(=O)N(CC(=O)O)Cc2ccc(OCCc3nc(-c4ccccc4)oc3C)cc2)cc1	Bromodomain-containing protein 4 (Homo sapiens) (UniProt O60885)	low
Cc1ccc2c(N)c(C(=O)NC3CCc4cc(N5CC6CCC(C5)N6)ccc4C3)sc2n1 (centres undefined)	Bromodomain-containing protein 4 (Homo sapiens) (UniProt O60885)	moderate
C=C[C@@]12CCc3cc(O)ccc3[C@H]1CC[C@@]1(C)[C@H]2CC[C@@H]1O	Bromodomain-containing protein 4 (Homo sapiens) (UniProt O60885)	high
CO[C@H](C)CN1CC[C@]2(C)c3cccc(O)c3C[C@H]1C2(C)C	Bromodomain-containing protein 4 (Homo sapiens) (UniProt O60885)	low
CCCn1cc(-c2cc(C3C(=O)N(CC)c4ccc(C(F)(F)F)cc4N(c4ccccc4)C3=O)cc(OC)c2O)cn1 (centres undefined)	Bromodomain-containing protein 4 (Homo sapiens) (UniProt O60885)	high
C[C@H](CCC(=O)O)[C@H]1CC[C@H]2[C@@H]3CC[C@@H]4C[C@H](O)CC[C@]4(C)[C@H]3CC[C@]12C	Bromodomain-containing protein 4 (Homo sapiens) (UniProt O60885)	low
CCN1C(=O)C(c2cccc(C(=O)O)c2)C(=O)N(c2ccccc2)c2cc(C(F)(F)F)ccc21 (centres undefined)	Bromodomain-containing protein 4 (Homo sapiens) (UniProt O60885)	moderate
Clc1ccccc1C(c1ccccc1)(c1ccccc1)n1cccn1	Bromodomain-containing protein 4 (Homo sapiens) (UniProt O60885)	moderate
CN1CCN(C(=O)Cc2ccc(N/C(=C3\C(=O)Nc4cc(Cl)ccc43)c3ccccc3)cc2)CC1	Bromodomain-containing protein 4 (Homo sapiens) (UniProt O60885)	low

====

biological target: Bromodomain-containing protein 4 (Homo sapiens) (UniProt O60885); conditions: Compound concentration 20.0 uM, Protein concentration 2.0 uM, Result type QC Liability
Note to self: ΔTm under -0.8 °C means Satisfied, ties and anything higher get Not satisfied.

molecule	class_name
C[C@@H](CO)CCC[C@@H](C)[C@H]1CC[C@H]2[C@@H]3CC=C4C[C@@H](O)CC[C@]4(C)[C@H]3CC[C@]12C	Satisfied
Cc1cc(Cl)ccc1S(=O)(=O)NC[C@H]1C2CCC(CC2)[C@@H]1/C=C\CCCC(=O)O	Satisfied
CCOP(=O)(OCC)C(=Cc1cc(C(C)(C)C)c(O)c(C(C)(C)C)c1)P(=O)(OCC)OCC	Satisfied
C[C@@H](CN1CC[C@@]2(C)c3cccc(O)c3C[C@@H]1C2(C)C)OCc1ccccc1	Not satisfied
C[C@@H]1CC[C@@]2(OC1)O[C@H]1[C@@H](O)[C@H]3[C@@H]4CC[C@H]5C[C@@H](O[C@@H]6O[C@H](CO)[C@H](O[C@@H]7O[C@H](CO)C(O)[C@H](O[C@@H]8OC[C@@H](O)[C@H](O)[C@H]8O)[C@H]7O[C@@H]7O[C@H](CO)[C@H](O)[C@H](O[C@@H]8O[C@H](CO)[C@@H](O)[C@H](O)[C@H]8O)[C@H]7O)[C@H](O)[C@H]6O)[C@H](O)C[C@]5(C)[C@H]4CC[C@]3(C)[C@H]1[C@@H]2C (some centres undefined)	Satisfied
CO[C@@H](C)CN1CC[C@]2(C)c3cc(O)ccc3C[C@H]1C2(C)C	Satisfied
Cc1nnc2n1-c1sc3c(c1C(c1ccccc1Cl)=NC2)CC(C(=O)N1CCOCC1)C3 (centres undefined)	Not satisfied
Cc1nnc2n1-c1sc(CCC(=O)N3CCOCC3)cc1C(c1ccccc1Cl)=NC2	Not satisfied
